measure: pIC50
Bear in mind: pIC50 is minus log10 of a mol/L concentration; give just that figure.

Prompt: What measured pIC50 is associated with CCCCCCCCCCCCCCCCCC(=O)OCC(CO)O[C@@H]1O[C@H](CS(=O)(=O)O)[C@@H](O)[C@H](O)[C@H]1O (stereo partly specified) on RAC-alpha serine/threonine-protein kinase (Homo sapiens)?
Response: 4.50

----------
- experimental target: RAC-alpha serine/threonine-protein kinase (Homo sapiens, UniProt P31749)
- Sequence (P31749 whole entry, the tested form may be a part): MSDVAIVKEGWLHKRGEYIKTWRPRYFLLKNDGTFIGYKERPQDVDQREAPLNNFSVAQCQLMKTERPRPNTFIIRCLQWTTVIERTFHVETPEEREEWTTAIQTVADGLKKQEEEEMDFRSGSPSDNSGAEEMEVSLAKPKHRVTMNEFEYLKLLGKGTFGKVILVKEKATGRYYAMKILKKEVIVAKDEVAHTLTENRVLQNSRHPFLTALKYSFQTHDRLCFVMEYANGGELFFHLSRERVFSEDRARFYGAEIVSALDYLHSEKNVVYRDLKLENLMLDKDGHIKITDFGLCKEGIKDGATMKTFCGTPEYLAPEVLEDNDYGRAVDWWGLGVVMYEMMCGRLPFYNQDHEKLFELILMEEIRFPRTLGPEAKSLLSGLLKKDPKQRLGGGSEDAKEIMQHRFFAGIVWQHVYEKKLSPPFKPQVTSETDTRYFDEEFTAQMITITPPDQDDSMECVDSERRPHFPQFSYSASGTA
- test name: Inhibition of human Akt1 PH domain using AKTide-2T as substrate at 100 uM by ELISA
measure: inhibition

Prompt: GET /values?readout=inhibition&item= CO[C@@H]1O[C@H](CS(=O)(=O)O)[C@@H](O)[C@H](O)[C@H]1O
Response: 28%

Prompt: GET /values?readout=inhibition&item= O=c1[nH]c2ccccc2n1C1CCN(Cc2ccc(-c3nc4cc5[nH]cnc5cc4nc3-c3ccccc3)cc2)CC1
Response: 89%

Prompt: GET /values?readout=inhibition&item= CCCCCC(=O)OCC(COC(=O)CCCCC)O[C@@H]1O[C@H](CS(=O)(=O)O)[C@@H](O)[C@H](O)[C@H]1O
Response: 13%

Prompt: GET /values?readout=inhibition&item= CCCCCCCCCCCCCCCCCC(=O)OCC(CO)O[C@@H]1O[C@H](CS(=O)(=O)O)[C@@H](O)[C@H](O)[C@H]1O (some centres not stated)
Response: 86%

Prompt: GET /values?readout=inhibition&item= CCCCCCCCO[C@@H]1O[C@H](CN)[C@@H](O)[C@H](O)[C@H]1O
Response: 6%

Prompt: GET /values?readout=inhibition&item= CCCCCCCCCCCC(=O)OCC(COC(=O)CCCCCCCCCCC)O[C@@H]1O[C@H](CS(=O)(=O)O)[C@@H](O)[C@H](O)[C@H]1O
Response: 77%

Prompt: GET /values?readout=inhibition&item= CCCCCCCCCCCC(=O)OCC(CO)O[C@@H]1O[C@H](CS(=O)(=O)O)[C@@H](O)[C@H](O)[C@H]1O (some centres not stated)
Response: 31%

Prompt: GET /values?readout=inhibition&item= CCCCCCCCO[C@@H]1O[C@H](CS(=O)(=O)O)[C@@H](O)[C@H](O)[C@H]1O
Response: 14%

Prompt: GET /values?readout=inhibition&item= CCCCCC(=O)OCC(CO)O[C@@H]1O[C@H](CS(=O)(=O)O)[C@@H](O)[C@H](O)[C@H]1O (some centres not stated)
Response: 18%

Prompt: GET /values?readout=inhibition&item= O=S(=O)(O)C[C@H]1O[C@@H](OC(CO)CO)[C@H](O)[C@@H](O)[C@@H]1O
Response: 13%

Prompt: GET /values?readout=inhibition&item= CCCCCCCCCCCC(=O)OCC(COC(=O)CCCCCCCCCCC)O[C@@H]1O[C@H](CO)[C@@H](O)[C@H](O)[C@H]1O
Response: 7%
